System: Aβ42
measurement.description: γ-secretase-modulating activity, Method 2: Aβ42 Alphalisa in supernatant of SKNBE2 cells carrying APP 695-wild type (Table 3b)
Assay type: cell-based
condition.summary: overnight
Experimental: Screening was carried out using SKNBE2 cells carrying the APP 695-wild type, grown in Dulbecco's Modified Eagle's Medium/Nutrient mixture F-12 (DMEM/NUT-mix F-12) (HAM) provided by Invitrogen (cat no. 10371-029) containing 5% Serum/Fe supplemented with 1% non-essential amino acids, 1-glutamine 2 mM, Hepes 15 mM, penicillin 50 U/ml (units/ml) en streptomycin 50 μg/ml. […] Aβtotal and Aβ42 concentrations were quantified in the cell supernatant using the Aphalisa technology (Perkin Elmer). […]
pIC50: −log10 of the molar value.
measured.endpoint: pIC50

Example cases with answers are listed next.
molecule: COc1cc(-c2nc(N(C)c3ccc(F)cc3C(F)(F)F)n(C)n2)ccc1-n1cnc(C)c1
pIC50: 6.96

molecule: COc1cc(-c2nc(Nc3cccc(Cl)c3OC)n(C)n2)ccc1-n1cnc(C)c1
pIC50: 7.19

molecule: COc1cc(-c2nc3n(n2)CCCC3c2ccc(F)cc2F)ccc1-n1cnc(C)c1 (stereo not shown)
pIC50: 6.80

molecule: COc1cc(-c2nc(Nc3cccc4c3OC(F)(F)O4)n(C)n2)ccc1-n1cnc(C)c1
pIC50: 7.47

molecule: COc1cc(-c2nc(Nc3c(F)cccc3OC)n(C)n2)ccc1-n1cnc(C)c1
pIC50: 6.77

P: COc1cc(-c2nc3n(n2)CCCC3c2ccc(C(F)(F)F)cc2)ccc1-n1cnc(C)c1 (stereo not shown)
Q: COc1cc(-c2nc(Nc3ccnc(Cl)c3)n(C)n2)ccc1-n1cnc(C)c1
Enquiry: Of P and Q , which carries the smaller reported pIC50 figure? Record your answer as the label of the chosen record.
Return: Q

A: COc1cc(-c2nc(Nc3ccc(Cl)cc3)n(C)n2)ccc1-n1cnc(C)c1
B: COc1cc(-c2nc(Nc3cc(OCC4CC4)ccc3F)n(C)n2)ccc1-n1cnc(C)c1
C: COc1cc(-c2nc(N3CCCc4ccccc43)n(C)n2)ccc1-n1cnc(C)c1
D: COc1cc(-c2nc(Nc3c(F)ccc(Br)c3F)n(C)n2)ccc1-n1cnc(C)c1
Enquiry: Please put the entries in order of rising pIC50. // format: requested-order list of labels
Return: C, A, D, B
(C: 6.59, A: 6.82, D: 7.18, B: 7.70)

a: COc1cc(-c2nc3n(n2)CCOC3c2ccc(F)cc2F)ccc1-n1cnc(C)c1 (stereo not shown)
b: COc1cc(-c2nc(Nc3ccccc3OC(C)C)n(C)n2)ccc1-n1cnc(C)c1
c: COc1cc(-c2nc(Nc3ccnc(C(F)(F)F)c3)n(C)n2)ccc1-n1cnc(C)c1
Enquiry: Highest pIC50 first, then in falling order down to the smallest. // format: requested-order list of labels
Return: b, c, a
